# Target desc: T1, CRF2R; further: reference of the scale not given here
# T1 sequence (Q13324 whole entry, species assumed, looked up): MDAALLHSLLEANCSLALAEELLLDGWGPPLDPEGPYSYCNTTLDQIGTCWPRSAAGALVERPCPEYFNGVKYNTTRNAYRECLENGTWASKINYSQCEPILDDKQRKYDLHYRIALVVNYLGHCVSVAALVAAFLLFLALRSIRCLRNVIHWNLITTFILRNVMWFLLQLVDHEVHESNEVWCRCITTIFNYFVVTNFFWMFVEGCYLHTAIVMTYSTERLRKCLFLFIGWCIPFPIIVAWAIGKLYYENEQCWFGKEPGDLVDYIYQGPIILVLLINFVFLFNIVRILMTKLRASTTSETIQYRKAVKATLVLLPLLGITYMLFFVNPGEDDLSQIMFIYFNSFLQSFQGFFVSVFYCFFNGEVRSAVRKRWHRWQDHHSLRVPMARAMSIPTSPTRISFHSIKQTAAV
# Test protocol: cell-based or functional assay
Ends that are not written are not given here.
Entries and their measured CRF2R Emax % follow.
Measurement kind: CRF2R Emax % (%)

ZGPPISIDLPYHLLRKVIEIEKQEKEKQQAANNALLLDTI (C-terminal amide) [SEQ ID NO 312]
95
ZGPPISIDLPIILLRKMIEIEKQEKEKQQAANNARLLARI (C-terminal amide) [SEQ ID NO 290]
100
NDDPPISIDLPQYLLRNMIEMARIENEREQAGLNAKYLAEV-NH2 [SEQ ID NO 265]
23.4
ZGPPISIDLPFQLLRKAIEIEKQEKEKQQATTNARLLDRV (C-terminal amide) [SEQ ID NO 363]
100
IVLSLDVVIGLLQILLEQARARAAREQATTNARILARV-NH2 [SEQ ID NO 214]
60
ZGPPISIDLPFFLLRKVIEIEKQEKEKQQAANNALLLATI (C-terminal amide) [SEQ ID NO 317]
88.3
ZGPPISIDLPFQLLRKVIEIEKQEKEKQQAANNAELLAEI (not fully specified; C-terminal amide) [SEQ ID NO 272]
100
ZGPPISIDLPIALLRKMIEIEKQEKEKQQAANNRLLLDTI (C-terminal amide) [SEQ ID NO 306]
100
IVLSLDVPIGLLQILLEQEKARAAREQATTNARILARV-NH2 [SEQ ID NO 325]
100
ZGPPISIDLPIILLRKVIEIEKQEKEKQQAANNARLLARI (C-terminal amide) [SEQ ID NO 295]
67.6
ZGPPISIDLPFFLLRKMIEIEKQEKEKQQAANNALLLDTI (C-terminal amide) [SEQ ID NO 318]
95.4
ZGPPISIDVPLQLLRKVIEIEKQEKEKQQAANNARLLDTI (C-terminal amide) [SEQ ID NO 380]
100
ZGPPISIDLPYYLLRKMIEIEKQEKEKQQAANNALLLDTI (C-terminal amide) [SEQ ID NO 226]
100
ZGPPISIDLPTYLLRILIEIEKQEKEKQQAANNRLLLDTI (not fully specified; C-terminal amide) [SEQ ID NO 252]
100
DNPSLSIDLPLQLLRTLLELEKTQSQRERAEQNAIIFASV-NH2 [SEQ ID NO 342]
92.2
ZGPPISIDLPQALLRKMIEIEKQEKEKQQAANNRLLLDTI (C-terminal amide) [SEQ ID NO 302]
100
DNPSLSIDLPLILLRTLLELEKTQSQRERAEQNAIIFASV-NH2 [SEQ ID NO 345]
100
ZGPPISIDLPFQLLRKTIEIEKQEKEKQQATTNARLLDRV (C-terminal amide) [SEQ ID NO 321]
86.8
DNPSLSIDLPLILLRTLLELEKTQSQRERAEQNARIFARV-NH2 [SEQ ID NO 335]
91
IVLSLDVSIGLLQILLEQARARAAREQATTNARILARV-NH2 [SEQ ID NO 370]
75
DNPSLSIDLPLFLLRTLLELEKTQSQRERAEQNARIFDRV-NH2 [SEQ ID NO 336]
100

Data credit: patent US20030148958A1
